Target: DNA repair protein RAD51 homolog 1 (Homo sapiens)
Sequence (Q06609 whole entry): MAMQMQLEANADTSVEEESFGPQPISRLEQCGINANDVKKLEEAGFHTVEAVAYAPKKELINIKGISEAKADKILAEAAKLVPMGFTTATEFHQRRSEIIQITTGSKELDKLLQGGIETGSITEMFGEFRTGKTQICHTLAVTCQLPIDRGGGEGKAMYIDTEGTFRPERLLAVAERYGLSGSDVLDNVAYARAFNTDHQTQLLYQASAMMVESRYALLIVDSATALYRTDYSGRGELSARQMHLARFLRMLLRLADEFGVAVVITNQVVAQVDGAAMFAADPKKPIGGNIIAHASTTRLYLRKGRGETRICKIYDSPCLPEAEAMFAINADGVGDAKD
Assay: Inhibition of RAD51-mediated homologous recombination in human HEK293-DR-GFP cells transfected with pCBASce expressing I-Sce-I after 24 hrs following transfection by 7-aminoactinomycin D staining based flow cytometry
QUANTITY_MEASURED: IC50 (µM)
State the answer as a number, implicitly in µM.

Please look at this compound and report its IC50: COc1ccc2c(c1)NC(c1ccc(N(C)C)cc1)c1cccn1-2 (stereo in doubt; 1)
13.1
